System: BRD4 BD1 and BRD4 BD2
Test: BRD4 BD1 and BRD4 BD2 TR-FRET assays (selectivity for BRD4 BD2 over BRD4 BD1)
Assay type: binding, Human
Settings: BRD4 BD2 pIC50 − BRD4 BD1 pIC50; in at least one of the TR-FRET assays
Method: Bromodomain binding was assessed utilising a time resolved fluorescent resonance energy transfer (TR-FRET) competition assay. […] The competition of the compounds of formula (I) with Reference Compound X for binding to the BET family (BRD2, BRD3, BRD4 and BRDT) was assessed using protein truncates spanning both bromodomain 1 (BD1) and bromodomain 2 (BD2). […]
// reported selectivity for BRD4 BD2 over BRD4 BD1 per item
property: selectivity for BRD4 BD2 over BRD4 BD1

> print(dat)
                                   compound  reported.result
1  CNC(=O)c1cc(C(=O)Nc2cn[nH]c2)cc(C(OC)c2ccccc2)n1 (single isomer, unassigned)     2.7 log unit
2  CNC(=O)c1cc(C(=O)Nc2cnn(C)c2)cc(Cc2ccccc2)n1     2.7 log unit
3  CNC(=O)c1cc(C(=O)Nc2cn[nH]c2)cc([C@@H](C)c2ccccc2)n1     3.0 log unit
4  CNC(=O)c1cc(C(=O)Nc2cn[nH]c2)cc(Cc2ccccc2)n1     2.7 log unit
